This document collects AC50 values reported for B2 bradykinin receptor (Homo sapiens, UniProt P30411).

| Compound | AC50 |
| --- | --- |
| CN(C)CCCNc1c2ccccc2nc2cccc([N+](=O)[O-])c12 | > 30 µM |
| C/N=C(\NC)NCc1ccccc1 | > 30 µM |
| O=C1CN=C(c2ccccn2)c2cc(Br)ccc2N1 | > 10 µM |
| CN1C(C(=O)Nc2ccccn2)=C(O)c2ccccc2S1(=O)=O | > 10 µM |
| CCC(C)C(CC)C(N)=O (stereo unspecified) [VALNOCTAMIDE] | > 30 µM |
| CC1OC2(CS1)CN1CCC2CC1 (stereo unspecified) | > 10 µM |
